# Tested on: mechanical hyperalgesia in rats with diabetes induced by streptozotocin
# protocol_description: Mechanical hyperalgesia in rats with diabetes induced by streptozotocin
# Format: in vivo, rat
# experimental_conditions: male CD rats, streptozotocin 80 mg/kg i.p. diabetic neuropathy, dose 10^-5 mol/kg, vehicle 112 ± 4.0, normal animals 240±8.7 g
measurement_name: Pain threshold (g) 2 h after treatment

[
  {
    "molecule": "Cl.O=C(NCC1CCN(CCc2ccc([N+](=O)[O-])cc2)CC1)c1n[nH]c2ccccc12 [AF3R298]",
    "measurement_name": "Pain threshold (g) 2 h after treatment",
    "measurement_unit": "g",
    "reported": 170
  },
  {
    "molecule": "Cc1ccc2c(c1)c(C(=O)NCC1CCN(CCc3ccc(O)cc3)CC1)nn2C(C)C.Cl [AF3R296]",
    "measurement_name": "Pain threshold (g) 2 h after treatment",
    "measurement_unit": "g",
    "reported": 154
  },
  {
    "molecule": "CC(C)n1nc(C(=O)NCC2CCN(CCc3ccc(N)cc3)CC2)c2ccccc21.Cl.Cl [AF3R294]",
    "measurement_name": "Pain threshold (g) 2 h after treatment",
    "measurement_unit": "g",
    "reported": 198
  },
  {
    "molecule": "COc1ccc(CCN2CCC(C(=O)Nc3nn(C)c4ccccc34)CC2)cc1.Cl [AF3R328]",
    "measurement_name": "Pain threshold (g) 2 h after treatment",
    "measurement_unit": "g",
    "reported": 158
  }
]

----------
# Tested on: mechanical hyperalgesia in rats with diabetes induced by streptozotocin
# protocol_description: Mechanical hyperalgesia in rats with diabetes induced by streptozotocin
# Type: in vivo, rat
# experimental_conditions: male CD rats, streptozotocin 80 mg/kg i.p. diabetic neuropathy, dose 10^-5 mol/kg, vehicle 112 ± 4.0, normal animals 240±8.7 g
# Experimental: The pain threshold of normal animals of equal weight/age=155±2.1 g 2. Mechanical Hyperalgesia in Rats with Diabetes Induced by Streptozotocin Male CD rats weighing 240-300 g on arrival were used. […] After at least three weeks following the injection of streptozotocin, rats were selected having a level of glycaemia ≧300 mg/dl and having a response threshold to a mechanical nociceptive stimulus ≦120 g. […] The pain threshold was measured using an analgesiometer. […]

[
  {
    "compound_structure": "CC(C)n1nc(C(=O)NCC2CCN(CCc3ccc([N+](=O)[O-])cc3)CC2)c2ccccc21.O=C(O)C(=O)O",
    "tgt": "mechanical hyperalgesia in rats with diabetes induced by streptozotocin",
    "Pain threshold (g) 2 h after treatment": 184
  },
  {
    "compound_structure": "Cl.Cn1nc(NC(=O)C2CCN(CCc3ccc(O)cc3)CC2)c2ccccc21",
    "tgt": "mechanical hyperalgesia in rats with diabetes induced by streptozotocin",
    "Pain threshold (g) 2 h after treatment": 171
  },
  {
    "compound_structure": "Cl.Cn1nc(NC(=O)C2CCN(CCc3ccccc3)CC2)c2ccccc21",
    "tgt": "mechanical hyperalgesia in rats with diabetes induced by streptozotocin",
    "Pain threshold (g) 2 h after treatment": 184
  },
  {
    "compound_structure": "Cl.Cl.Nc1ccc(CCN2CCC(CNC(=O)c3n[nH]c4ccccc34)CC2)cc1",
    "tgt": "mechanical hyperalgesia in rats with diabetes induced by streptozotocin",
    "Pain threshold (g) 2 h after treatment": 164
  }
]

----------
# Test system: mechanical hyperalgesia induced by CFA in the rat
# protocol_description: Mechanical hyperalgesia induced by CFA in the rat
# Type: in vivo
# experimental_conditions: male CD rats, dose 10^-5 mol/kg, test 23 hours after injection of CFA, vehicle 121 ± 4.1, normal animals 155±2.1 g

[
  {
    "compound_structure": "Cl.O=C(NCC1CCN(CCc2ccc([N+](=O)[O-])cc2)CC1)c1n[nH]c2ccccc12",
    "tgt": "mechanical hyperalgesia induced by CFA in the rat",
    "Pain threshold (g) 1 h after treatment": 174
  },
  {
    "compound_structure": "Cl.Cn1nc(NC(=O)C2CCN(CCc3ccccc3)CC2)c2ccccc21",
    "tgt": "mechanical hyperalgesia induced by CFA in the rat",
    "Pain threshold (g) 1 h after treatment": 170
  },
  {
    "compound_structure": "COc1ccc(CCN2CCC(C(=O)Nc3nn(C)c4ccccc34)CC2)cc1.Cl",
    "tgt": "mechanical hyperalgesia induced by CFA in the rat",
    "Pain threshold (g) 1 h after treatment": 150
  },
  {
    "compound_structure": "CC(C)n1nc(C(=O)NCC2CCN(CCc3ccc([N+](=O)[O-])cc3)CC2)c2ccccc21.O=C(O)C(=O)O",
    "tgt": "mechanical hyperalgesia induced by CFA in the rat",
    "Pain threshold (g) 1 h after treatment": 186
  },
  {
    "compound_structure": "Cl.Cl.Nc1ccc(CCN2CCC(CNC(=O)c3n[nH]c4ccccc34)CC2)cc1",
    "tgt": "mechanical hyperalgesia induced by CFA in the rat",
    "Pain threshold (g) 1 h after treatment": 160
  },
  {
    "compound_structure": "Cc1ccc2c(c1)c(C(=O)NCC1CCN(CCc3ccc(O)cc3)CC1)nn2C(C)C.Cl",
    "tgt": "mechanical hyperalgesia induced by CFA in the rat",
    "Pain threshold (g) 1 h after treatment": 151
  },
  {
    "compound_structure": "CC(C)n1nc(C(=O)NCC2CCN(CCc3ccc(N)cc3)CC2)c2ccccc21.Cl.Cl",
    "tgt": "mechanical hyperalgesia induced by CFA in the rat",
    "Pain threshold (g) 1 h after treatment": 194
  },
  {
    "compound_structure": "Cl.Cn1nc(NC(=O)C2CCN(CCc3ccc(O)cc3)CC2)c2ccccc21",
    "tgt": "mechanical hyperalgesia induced by CFA in the rat",
    "Pain threshold (g) 1 h after treatment": 161
  }
]
